FYI, the data here is from ChEMBL document CHEMBL4270638.

- System: MCF7
- Experiment Summary: Cell cycle arrest in human MCF7 cells expressing scrambled siRNA assessed as accumulation at S phase at 1 uM after 24 hrs by propidium iodide staining based flow cytometry (reference value: 29.79%)
- Type: functional
Mark TRUE only for Activity values smaller than 30%; exact matches and larger values are FALSE.

Is 30% strictly greater than the compound's reported Activity? compound: CCN(CC)CCNC(=O)c1cc(C(CC)(CC)c2ccc(OCSc3ccccc3)c(C)c2)cn1CC
FALSE

###

For each record, write down the corresponding half-life.
- Experiment Summary: Half life in rat liver microsomes in presence of NADPH by HPLC method
- Type: ADME, microsome

Example compounds with recorded half-life:
[[record]]
compound = "CCn1c(C(=O)N[C@@H](C)CO)ccc1C(CC)(CC)c1ccc(OCS(=O)(=O)c2ccccc2)c(C)c1"
outcome_measure = "half-life"
result = "43.8 min"

[[record]]
compound = "CCN(CC)CCNC(=O)c1cc(C(CC)(CC)c2ccc(OCSC)c(C)c2)cn1CC"
outcome_measure = "half-life"
result = "48.1 min"

[[record]]
compound = "CCN(CC)CCNC(=O)c1cc(C(CC)(CC)c2ccc(OCSc3ccccc3)c(C)c2)cn1CC"
outcome_measure = "half-life"
result = "71.4 min"

[[record]]
compound = "CCN(CC)CCNC(=O)c1ccc(C(CC)(CC)c2ccc(OCSC)c(C)c2)n1CC"
outcome_measure = "half-life"
result = "57.3 min"

[[record]]
compound = "CCN(CC)CCNC(=O)c1ccc(C(CC)(CC)c2ccc(OCS(=O)(=O)c3ccccc3)c(C)c2)n1CC"
outcome_measure = "half-life"
result = "62.4 min"

[[record]]
compound = "CCn1c(C(=O)NCCN)ccc1C(CC)(CC)c1ccc(OCS(=O)(=O)c2ccccc2)c(C)c1"
outcome_measure = "half-life"
result = "34.9 min"

[[record]]
compound = "CCn1c(C(=O)N[C@H](CO)C(C)C)ccc1C(CC)(CC)c1ccc(OCS(=O)(=O)c2ccccc2)c(C)c1"
outcome_measure = "half-life"
result = "46.3 min"

[[record]]
compound = "CCN(CC)CCNC(=O)c1cc(C(CC)(CC)c2ccc(OCS(=O)(=O)c3ccccc3)c(C)c2)cn1CC"
outcome_measure = "half-life"
result = "59.2 min"


I would be grateful if you could provide half-life for each of the following entries.
1. CCN(CC)CCNC(=O)c1ccc(C(CC)(CC)c2ccc(OCSc3ccccc3)c(C)c2)n1CC
2. CCn1c(C(=O)N[C@@H](C)CO)ccc1C(CC)(CC)c1ccc(OCC(O)C(C)(C)C)c(C)c1 (stereo not given in full)

1. 53.7 min
2. 25.8 min

###

- Test system: PC-3
- Experiment Summary: Antiproliferative activity against human PC3 cells after 24 hrs by MTT assay
- Format: functional, cell-based
- Assay Conditions: PC-3, 24 h
For each record, write down the corresponding IC50.
Give bare numbers, in µM.

[[record]]
compound = "CCN(CC)CCNC(=O)c1cc(C(CC)(CC)c2ccc(OCS(C)(=O)=O)c(C)c2)cn1CC"
measured_number = 36.6


I would be grateful if you could provide IC50 for each of the following entries.
1. CCn1c(C(=O)N[C@H](C)C(=O)O)ccc1C(CC)(CC)c1ccc(OCS(=O)(=O)c2ccccc2)c(C)c1
2. CCn1c(C(=O)N[C@H](CO)CCCO)ccc1C(CC)(CC)c1ccc(OCS(=O)(=O)c2ccccc2)c(C)c1
3. CCn1c(C(=O)N[C@H](C(=O)O)C(C)C)ccc1C(CC)(CC)c1ccc(OCS(=O)(=O)c2ccccc2)c(C)c1
4. CCN(CC)CCNC(=O)c1ccc(C(CC)(CC)c2ccc(OCS(=O)(=O)c3ccccc3)c(C)c2)n1CC
5. CCN(CC)CCNC(=O)c1ccc(C(CC)(CC)c2ccc(OCSc3ccccc3)c(C)c2)n1CC

1: 20.1; 2: 6.81; 3: 3.65; 4: 7.13; 5: 2.23

I would be grateful if you could provide IC50 for each of the following entries.
1. CCn1c(C(=O)N[C@@H](CO)CCCO)ccc1C(CC)(CC)c1ccc(OCS(=O)(=O)c2ccccc2)c(C)c1
2. CCn1c(C(=O)N[C@@H](CO)C(C)C)ccc1C(CC)(CC)c1ccc(OCS(=O)(=O)c2ccccc2)c(C)c1
3. CCN(CC)CCNC(=O)c1cc(C(CC)(CC)c2ccc(OCSC)c(C)c2)cn1CC
4. CCn1c(C(=O)NC(C)(C)CO)ccc1C(CC)(CC)c1ccc(OCS(=O)(=O)c2ccccc2)c(C)c1
5. CCn1c(C(=O)N[C@H](CO)C(C)C)ccc1C(CC)(CC)c1ccc(OCS(=O)(=O)c2ccccc2)c(C)c1

13.4
10.6
9.54
9.85
7.3

I would be grateful if you could provide IC50 for each of the following entries.
1. CCn1c(C(=O)N[C@@H](C(=O)O)C(C)C)ccc1C(CC)(CC)c1ccc(OCS(=O)(=O)c2ccccc2)c(C)c1
2. CCn1c(C(=O)N[C@@H](C)CO)ccc1C(CC)(CC)c1ccc(OCS(=O)(=O)c2ccccc2)c(C)c1

1: 3.07; 2: 9.52
